# assay target: recombinant rat GluN1/GluN2A (Rattus norvegicus, UniProt P35439+Q00959)
# Sequence (Q00959 23-1464, other chains not shown): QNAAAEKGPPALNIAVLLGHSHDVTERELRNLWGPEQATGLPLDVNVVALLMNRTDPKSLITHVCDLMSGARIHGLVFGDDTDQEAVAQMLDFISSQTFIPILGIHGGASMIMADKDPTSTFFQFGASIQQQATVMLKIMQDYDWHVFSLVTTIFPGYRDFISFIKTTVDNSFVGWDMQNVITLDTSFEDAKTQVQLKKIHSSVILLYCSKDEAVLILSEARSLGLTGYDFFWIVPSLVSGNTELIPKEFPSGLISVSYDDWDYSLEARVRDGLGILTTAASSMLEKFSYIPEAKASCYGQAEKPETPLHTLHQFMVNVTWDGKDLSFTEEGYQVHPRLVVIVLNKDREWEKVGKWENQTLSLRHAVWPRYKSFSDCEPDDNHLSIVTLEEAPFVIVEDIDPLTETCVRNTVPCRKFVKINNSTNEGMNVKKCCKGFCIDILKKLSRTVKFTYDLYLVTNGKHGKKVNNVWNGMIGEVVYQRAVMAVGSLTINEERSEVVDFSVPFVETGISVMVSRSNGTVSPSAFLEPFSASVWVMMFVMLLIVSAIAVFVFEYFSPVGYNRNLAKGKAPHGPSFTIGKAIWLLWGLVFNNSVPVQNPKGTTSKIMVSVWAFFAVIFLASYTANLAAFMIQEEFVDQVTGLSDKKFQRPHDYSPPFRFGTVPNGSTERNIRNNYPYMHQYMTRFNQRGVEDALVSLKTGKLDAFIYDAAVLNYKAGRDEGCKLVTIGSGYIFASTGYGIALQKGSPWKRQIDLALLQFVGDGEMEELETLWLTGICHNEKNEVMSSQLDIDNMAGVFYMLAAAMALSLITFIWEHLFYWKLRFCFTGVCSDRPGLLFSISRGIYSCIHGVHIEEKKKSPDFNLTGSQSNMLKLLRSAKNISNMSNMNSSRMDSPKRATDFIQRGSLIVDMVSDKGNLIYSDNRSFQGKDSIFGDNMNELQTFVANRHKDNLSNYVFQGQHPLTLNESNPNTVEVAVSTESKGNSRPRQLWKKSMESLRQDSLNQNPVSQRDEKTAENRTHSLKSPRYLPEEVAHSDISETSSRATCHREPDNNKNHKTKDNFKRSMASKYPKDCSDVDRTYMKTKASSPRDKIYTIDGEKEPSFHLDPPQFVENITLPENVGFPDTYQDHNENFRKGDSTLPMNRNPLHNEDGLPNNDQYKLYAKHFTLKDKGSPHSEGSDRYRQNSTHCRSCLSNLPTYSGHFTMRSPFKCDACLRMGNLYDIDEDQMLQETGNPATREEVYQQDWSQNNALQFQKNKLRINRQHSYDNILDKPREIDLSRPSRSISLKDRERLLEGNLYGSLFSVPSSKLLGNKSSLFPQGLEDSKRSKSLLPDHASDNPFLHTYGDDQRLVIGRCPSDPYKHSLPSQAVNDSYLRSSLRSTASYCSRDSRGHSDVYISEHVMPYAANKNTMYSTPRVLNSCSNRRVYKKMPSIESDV
# protocol text: Two-electrode voltage-clamp recordings in Xenopus laevis oocytes, GluN2A
# condition description: oocytes, 100 μM glutamate and 30 μM glycine
pIC50: −log10 of the molar value.
reported endpoint: pIC50

compound | assay target | reported endpoint | reported measurement
O=C(O)CC(F)(F)C(=O)N1N=C(c2ccccc2-c2ccc(F)c(Cl)c2)CC1c1ccc(Cl)cc1 (stereo not drawn) [997-120] | recombinant rat GluN1/GluN2A (Rattus norvegicus, UniProt P35439+Q00959) | pIC50 | 4.96
O=C(O)CC(F)(F)C(=O)N1N=C(c2ccccc2-c2ccc(Cl)cc2)CC1c1ccc(Cl)s1 (stereo not drawn) [997-118] | recombinant rat GluN1/GluN2A (Rattus norvegicus, UniProt P35439+Q00959) | pIC50 | 5.05
O=C(O)CCC(=O)N1N=C(c2c(-c3ccc(Cl)cc3)c3ccccc3[nH]c2=O)CC1c1ccc(C(F)(F)F)cc1 (stereo not drawn) [997-112] | recombinant rat GluN1/GluN2A (Rattus norvegicus, UniProt P35439+Q00959) | pIC50 | 4.89
